- system name: HLA-A24.02 (human)
- test details: pMHC-I complex dissociation at 37 C, 125I-b2m, half-life
- measurement context: remark: other sources report otherwise

{"binder": "MQLMPFGCLL", "Stability (T1/2 (h))": "0 h"}
{"binder": "VQLIMQLMPF", "Stability (T1/2 (h))": "0 h"}
{"binder": "QLIMQLMPF", "Stability (T1/2 (h))": "0.4 h"}
{"binder": "SLPRFILMEL", "Stability (T1/2 (h))": "0.2 h"}
